TARGET_OR_SYSTEM: Sodium-dependent noradrenaline transporter (Homo sapiens); further: assay procedure not described here
Sequence (P23975 whole entry): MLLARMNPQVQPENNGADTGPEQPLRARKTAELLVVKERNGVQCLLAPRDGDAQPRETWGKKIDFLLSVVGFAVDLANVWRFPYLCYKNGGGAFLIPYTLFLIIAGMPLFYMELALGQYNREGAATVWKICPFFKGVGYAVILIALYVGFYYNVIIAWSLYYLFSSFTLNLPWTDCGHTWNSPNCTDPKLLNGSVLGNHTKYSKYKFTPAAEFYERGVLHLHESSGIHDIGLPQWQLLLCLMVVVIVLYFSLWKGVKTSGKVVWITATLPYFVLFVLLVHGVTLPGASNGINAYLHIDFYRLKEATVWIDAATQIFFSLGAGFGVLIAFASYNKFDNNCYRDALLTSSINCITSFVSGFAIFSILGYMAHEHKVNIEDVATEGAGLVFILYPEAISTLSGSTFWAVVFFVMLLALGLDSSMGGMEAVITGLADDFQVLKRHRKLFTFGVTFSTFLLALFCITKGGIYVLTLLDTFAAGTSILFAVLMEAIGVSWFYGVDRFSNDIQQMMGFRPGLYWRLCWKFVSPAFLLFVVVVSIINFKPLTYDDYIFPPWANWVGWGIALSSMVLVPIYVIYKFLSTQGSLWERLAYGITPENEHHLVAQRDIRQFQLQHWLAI
EXPERIMENTAL_READOUT: AC50

[[record]]
molecule = "O=C1CN=C(c2ccccc2)c2cc(Cl)ccc2N1CC(F)(F)F"
target_or_system = "Sodium-dependent noradrenaline transporter (Homo sapiens)"
reported = "> 30 µM"

[[record]]
molecule = "COc1cc2c(cc1OC)C(=O)C(CC1CCN(Cc3ccccc3)CC1)C2 (stereo not given)"
target_or_system = "Sodium-dependent noradrenaline transporter (Homo sapiens)"
reported = "6.1 µM"

[[record]]
molecule = "CC(C)c1c(C(=O)Nc2ccccc2)c(-c2ccccc2)c(-c2ccc(F)cc2)n1CC[C@@H](O)C[C@@H](O)CC(=O)O"
target_or_system = "Sodium-dependent noradrenaline transporter (Homo sapiens)"
reported = "> 30 µM"

[[record]]
molecule = "O=C(O)c1cccc(-c2noc(-c3ccccc3F)n2)c1"
target_or_system = "Sodium-dependent noradrenaline transporter (Homo sapiens)"
reported = "> 30 µM"

[[record]]
molecule = "CCOC(=O)[C@H](CCc1ccccc1)N[C@@H](C)C(=O)N1CCC[C@H]1C(=O)O"
target_or_system = "Sodium-dependent noradrenaline transporter (Homo sapiens)"
reported = "> 10 µM"

[[record]]
molecule = "CC(=O)c1ccc2c(c1)N(CCCN1CCN(CCO)CC1)c1ccccc1S2"
target_or_system = "Sodium-dependent noradrenaline transporter (Homo sapiens)"
reported = "17 µM"

[[record]]
molecule = "Nc1nc2ccc(OC(F)(F)F)cc2s1"
target_or_system = "Sodium-dependent noradrenaline transporter (Homo sapiens)"
reported = "19 µM"

[[record]]
molecule = "NC(N)=Nc1nc(CSCCC(N)=NS(N)(=O)=O)cs1"
target_or_system = "Sodium-dependent noradrenaline transporter (Homo sapiens)"
reported = "> 10 µM"

[[record]]
molecule = "O=C(O)CCn1c2c(c3ccccc31)C[C@H](NS(=O)(=O)c1ccc(F)cc1)CC2"
target_or_system = "Sodium-dependent noradrenaline transporter (Homo sapiens)"
reported = "> 30 µM"

[[record]]
molecule = "NC(=O)c1ncn([C@@H]2O[C@H](CO)[C@@H](O)[C@H]2O)c1O"
target_or_system = "Sodium-dependent noradrenaline transporter (Homo sapiens)"
reported = "> 30 µM"

[[record]]
molecule = "CC(=O)O[C@]1(C(C)=O)CC[C@H]2[C@@H]3C[C@H](C)C4=CC(=O)CC[C@]4(C)[C@H]3CC[C@@]21C [MEDROXYPROGESTERONE ACETATE]"
target_or_system = "Sodium-dependent noradrenaline transporter (Homo sapiens)"
reported = "> 30 µM"

[[record]]
molecule = "CCCCOc1cc(C(=O)NCCN(CC)CC)c2ccccc2n1"
target_or_system = "Sodium-dependent noradrenaline transporter (Homo sapiens)"
reported = "> 10 µM"

[[record]]
molecule = "COC(=O)N[C@H](C(=O)N[C@@H](Cc1ccccc1)[C@@H](O)CN(Cc1ccc(-c2ccccn2)cc1)NC(=O)[C@@H](NC(=O)OC)C(C)(C)C)C(C)(C)C"
target_or_system = "Sodium-dependent noradrenaline transporter (Homo sapiens)"
reported = "> 30 µM"

[[record]]
molecule = "C#CCN[C@@H]1CCc2ccccc21"
target_or_system = "Sodium-dependent noradrenaline transporter (Homo sapiens)"
reported = "> 30 µM"

[[record]]
molecule = "C[N+](C)(C)CC(=O)O"
target_or_system = "Sodium-dependent noradrenaline transporter (Homo sapiens)"
reported = "> 30 µM"

[[record]]
molecule = "NC[C@H]1O[C@H](O[C@H]2[C@H](O)[C@@H](O[C@H]3O[C@H](CO)[C@@H](O)[C@H](N)[C@H]3O)[C@H](N)C[C@@H]2N)[C@H](O)[C@@H](O)[C@@H]1O"
target_or_system = "Sodium-dependent noradrenaline transporter (Homo sapiens)"
reported = "> 10 µM"

[[record]]
molecule = "CCCCCCC(C)(C)c1cc(O)c2c(c1)OC(C)(C)C1CCC(=O)CC21 (stereo not given)"
target_or_system = "Sodium-dependent noradrenaline transporter (Homo sapiens)"
reported = "> 30 µM"

[[record]]
molecule = "CCCCC(C)(O)C/C=C/[C@H]1[C@H](O)CC(=O)[C@@H]1CCCCCCC(=O)OC (stereo not given in full)"
target_or_system = "Sodium-dependent noradrenaline transporter (Homo sapiens)"
reported = "> 30 µM"

[[record]]
molecule = "COC(=O)C1=C(C)NC(C)=C(C(=O)OC(C)C)C1c1cccc2nonc12 (stereo not given)"
target_or_system = "Sodium-dependent noradrenaline transporter (Homo sapiens)"
reported = "> 30 µM"

[[record]]
molecule = "C=C1C[C@@H]2[C@H](CC[C@]3(C)C(=O)CC[C@@H]23)[C@@]2(C)C=CC(=O)C=C12"
target_or_system = "Sodium-dependent noradrenaline transporter (Homo sapiens)"
reported = "> 30 µM"


----------
TARGET_OR_SYSTEM: Muscarinic acetylcholine receptor M1 (Homo sapiens, UniProt P11229); further: assay procedure not described here
Sequence (P11229 whole entry): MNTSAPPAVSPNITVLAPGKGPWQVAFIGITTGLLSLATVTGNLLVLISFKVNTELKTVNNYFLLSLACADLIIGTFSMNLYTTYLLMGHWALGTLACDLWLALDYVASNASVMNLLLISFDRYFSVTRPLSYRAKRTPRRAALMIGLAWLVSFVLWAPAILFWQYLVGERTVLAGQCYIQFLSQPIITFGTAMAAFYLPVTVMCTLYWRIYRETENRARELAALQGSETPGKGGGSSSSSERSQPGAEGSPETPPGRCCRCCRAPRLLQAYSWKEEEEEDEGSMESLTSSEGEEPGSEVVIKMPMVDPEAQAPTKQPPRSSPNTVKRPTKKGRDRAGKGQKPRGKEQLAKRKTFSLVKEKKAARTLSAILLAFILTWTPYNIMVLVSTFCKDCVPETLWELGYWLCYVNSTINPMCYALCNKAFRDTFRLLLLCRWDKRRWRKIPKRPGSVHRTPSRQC
Format: functional
EXPERIMENTAL_READOUT: AC50

[[record]]
compound = "COc1cc2c(cc1OC)C(=O)C(CC1CCN(Cc3ccccc3)CC1)C2 (stereo not given) [DONEPEZIL]"
experimental_readout = "AC50"
reported = "8.2 µM"

[[record]]
compound = "Cc1cc(-c2ccccc2)nnc1NCCN1CCOCC1 [MINAPRINE]"
experimental_readout = "AC50"
reported = "> 10 µM"

[[record]]
compound = "CCCCC(C)(O)C/C=C/[C@H]1[C@H](O)CC(=O)[C@@H]1CCCCCCC(=O)OC (stereo not given in full) [MISOPROSTOL]"
experimental_readout = "AC50"
reported = "> 30 µM"

[[record]]
compound = "CN1C(=O)CC(C)(c2ccccc2)C1=O (stereo not given) [METHSUXIMIDE]"
experimental_readout = "AC50"
reported = "> 10 µM"

[[record]]
compound = "COc1ccc2c(c1)C(=O)N(CCc1ccc(S(=O)(=O)NC(=O)NC3CCCCC3)cc1)C(=O)C2(C)C [GLIQUIDONE]"
experimental_readout = "AC50"
reported = "> 30 µM"

[[record]]
compound = "CCOC(=O)[C@H](CCc1ccccc1)N[C@H]1CCCN2CCC[C@@H](C(=O)O)N2C1=O [CILAZAPRIL]"
experimental_readout = "AC50"
reported = "> 30 µM"

[[record]]
compound = "CN1CCCN=C1COC(=O)C(O)(c1ccccc1)C1CCCCC1 (stereo not given) [OXYPHENCYCLIMINE]"
experimental_readout = "AC50"
reported = "0.019 µM"

[[record]]
compound = "CC1=CC(=O)c2ccccc2C1=O [MENADIONE]"
experimental_readout = "AC50"
reported = "> 30 µM"

[[record]]
compound = "CC(C(=O)O)c1ccc(N2CC=CC2)c(Cl)c1 (stereo not given) [PIRPROFEN]"
experimental_readout = "AC50"
reported = "> 10 µM"

[[record]]
compound = "CCCCCN(C)CCC(O)(P(=O)(O)O)P(=O)(O)O [IBANDRONIC ACID]"
experimental_readout = "AC50"
reported = "> 30 µM"

[[record]]
compound = "N[C@@H](CSCC(=O)O)C(=O)O [CARBOCYSTEINE]"
experimental_readout = "AC50"
reported = "> 30 µM"

[[record]]
compound = "CCCC(=O)N1CCCN(c2nc(N)c3cc(OC)c(OC)cc3n2)CC1 [BUNAZOSIN]"
experimental_readout = "AC50"
reported = "> 30 µM"

[[record]]
compound = "O=C(Nc1ccccc1)OCC(CN1CCCCC1)OC(=O)Nc1ccccc1 (stereo not given) [DIPERODON]"
experimental_readout = "AC50"
reported = "> 10 µM"

[[record]]
compound = "CN(C/C=C/c1ccccc1)Cc1cccc2ccccc12 [NAFTIFINE]"
experimental_readout = "AC50"
reported = "> 10 µM"

[[record]]
compound = "CCCCCOC(=O)Nc1nc(=O)n([C@@H]2O[C@H](C)[C@@H](O)[C@H]2O)cc1F [CAPECITABINE]"
experimental_readout = "AC50"
reported = "> 30 µM"

[[record]]
compound = "CN1CCN(C(=O)OC2c3nccnc3C(=O)N2c2ccc(Cl)cn2)CC1 (stereo not given) [ZOPICLONE]"
experimental_readout = "AC50"
reported = "> 30 µM"

[[record]]
compound = "CN1CC(=O)N2[C@H](c3ccc4c(c3)OCO4)c3[nH]c4ccccc4c3C[C@@H]2C1=O"
experimental_readout = "AC50"
reported = "> 10 µM"

[[record]]
compound = "COC(=O)[C@@H]1CC2=CC(=O)CC[C@]2(C)[C@@]23O[C@@H]2C[C@@]2(C)[C@@H](CC[C@@]24CCC(=O)O4)[C@H]13 [EPLERENONE]"
experimental_readout = "AC50"
reported = "> 30 µM"

[[record]]
compound = "Cc1ccc(C(=O)c2cc(O)c(O)c([N+](=O)[O-])c2)cc1 [TOLCAPONE]"
experimental_readout = "AC50"
reported = "> 10 µM"

[[record]]
compound = "O=C(O)Cc1cn(-c2ccccc2)nc1-c1ccc(Cl)cc1 [LONAZOLAC]"
experimental_readout = "AC50"
reported = "> 30 µM"

[[record]]
compound = "C[C@@H]1O[C@@H]1P(=O)(O)O [FOSFOMYCIN]"
experimental_readout = "AC50"
reported = "> 10 µM"

[[record]]
compound = "CC(=O)NS(=O)(=O)c1ccc(N)cc1 [SULFACETAMIDE]"
experimental_readout = "AC50"
reported = "> 10 µM"

[[record]]
compound = "CC(C(O)c1ccc(O)cc1)N1CCC(Cc2ccccc2)CC1 (stereo not given) [IFENPRODIL]"
experimental_readout = "AC50"
reported = "> 30 µM"

[[record]]
compound = "CCCCCCCCCCCC[N+](C)(C)CCOc1ccccc1 [DOMIPHEN]"
experimental_readout = "AC50"
reported = "8.9 µM"

[[record]]
compound = "CCCS(=O)(=O)Nc1ccc(F)c(C(=O)c2c[nH]c3ncc(-c4ccc(Cl)cc4)cc23)c1F [VEMURAFENIB]"
experimental_readout = "AC50"
reported = "> 30 µM"

